# experimental-target: K243D mutant of DegS (Escherichia coli, UniProt P0AEE3, K243D)
# Sequence (P0AEE3 27-355 K243D): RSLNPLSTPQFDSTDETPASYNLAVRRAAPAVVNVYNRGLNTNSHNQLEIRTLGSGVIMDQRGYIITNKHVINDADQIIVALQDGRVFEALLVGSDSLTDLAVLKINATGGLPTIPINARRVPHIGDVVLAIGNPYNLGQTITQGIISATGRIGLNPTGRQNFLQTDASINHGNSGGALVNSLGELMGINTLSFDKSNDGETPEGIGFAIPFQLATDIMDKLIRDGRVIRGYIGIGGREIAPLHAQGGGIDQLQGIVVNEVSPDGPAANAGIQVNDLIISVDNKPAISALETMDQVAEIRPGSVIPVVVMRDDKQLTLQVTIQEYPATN
# protocol-description: OMP-peptide activation of RseA cleavage by K243D DegS
Residues, ends and D or L forms follow the SMILES beside them.
observation-type: EC50 (µM)
The reply should contain only the number, in µM.

Notebook: N[C@@H](Cc1ccc(O)cc1)C(=O)N[C@@H](Cc1ccc(O)cc1)C(=O)N[C@@H](Cc1ccccc1)C(=O)O [YYF] (H-Tyr-Tyr-Phe-OH) , EC50 read as 6.4

---

# experimental-target: wild-type DegS (Escherichia coli, UniProt P0AEE3)
# Sequence (P0AEE3 27-355): as the sequence (P0AEE3 27-355 K243D) above, with D217K counted along it
# protocol-description: OMP-peptide activation of RseA cleavage by wild-type DegS
Residues, ends and D or L forms follow the SMILES beside them.
observation-type: EC50 (µM)
The reply should contain only the number, in µM.

Notebook: N[C@@H](Cc1ccc(O)cc1)C(=O)N[C@@H](Cc1ccc(O)cc1)C(=O)N[C@@H](Cc1ccccc1)C(=O)O [YYF] (H-Tyr-Tyr-Phe-OH) , EC50 read as 29
